Give measured growth inhibition for each item. Keep answers brief.
System: SUDIPGVI (diffuse intrinsic pontine glioma line)
EXPERIMENTAL DETAILS: growth inhibition (% activity, log2 RLU normalised to DMSO / staurosporine); higher = more growth inhibition
CONDITIONS: 33 µM
All answers are understood in %, so give the number only.

Prompt: What value of measured growth inhibition is listed for `COc1ccc2c(c1)c(CC(=O)OCC(=O)O)c(C)n2C(=O)c1ccc(Cl)cc1` ?
Response: 5.09

Prompt: Try this compound next: `CC(=O)OCC(=O)[C@@]1(O)CC[C@H]2[C@@H]3CCC4=CC(=O)C=C[C@]4(C)[C@@]3(Cl)[C@@H](Cl)C[C@@]21C`
Response: -2.25

Prompt: Try this compound next: `CO[C@H]1C[C@@H]2CC[C@@H](C)[C@@](O)(O2)C(=O)C(=O)N2CCCC[C@H]2C(=O)O[C@H]([C@H](C)C[C@@H]2CC[C@@H](OCCO)[C@H](OC)C2)CC(=O)[C@H](C)/C=C(\C)[C@@H](O)[C@@H](OC)C(=O)[C@H](C)C[C@H](C)/C=C/C=C/C=C/1C`
Response: 10.5

Prompt: Try this compound next: `Oc1ccc(OCc2ccccc2)cc1`
Response: -1.42

Prompt: Try this compound next: CC(N)C12CC3CC(CC(C3)C1)C2 (stereo not given)
Response: -0.365

Prompt: Try this compound next: `CC[C@H](C)C[C@H](C)CCCCCCCCC(=O)N[C@H]1C[C@@H](O)[C@@H](NCCN)NC(=O)[C@@H]2[C@@H](O)CCN2C(=O)[C@H]([C@H](O)CCN)NC(=O)[C@H]([C@H](O)[C@@H](O)c2ccc(O)cc2)NC(=O)[C@@H]2C[C@@H](O)CN2C(=O)[C@H]([C@@H](C)O)NC1=O`
Response: -4.4

Prompt: Try this compound next: OCC(O)CN1CCN(c2ccccc2)CC1 (stereo not given)
Response: -3.65

Prompt: Try this compound next: `C=CC[N+]1([C@H]2C[C@H]3[C@@H]4CC[C@H]5C[C@H](O)[C@@H](N6CCOCC6)C[C@]5(C)[C@H]4CC[C@]3(C)[C@H]2OC(C)=O)CCCC1`
Response: 0.535

Prompt: Try this compound next: C[C@H]1O[C@H](O[C@H]2[C@H](O)[C@@H](O)[C@@H](O[C@H]3[C@H](O)[C@@H](O)C(O)O[C@@H]3CO)O[C@@H]2CO)[C@H](O)[C@@H](O)[C@@H]1N[C@H]1C=C(CO)[C@@H](O)[C@H](O)[C@H]1O (stereo not given in full)
Response: -0.59

Prompt: Try this compound next: `COc1ccc(O)cc1`
Response: -3.4

Prompt: Try this compound next: `CO/N=C(\C(=O)N[C@@H]1C(=O)N2C(C(=O)OCOC(=O)C(C)(C)C)=C(/C=C\c3scnc3C)CS[C@H]12)c1csc(N)n1`
Response: 0.818

Prompt: Try this compound next: `Cc1ccc(C(=O)Nc2ccc(CN3CCN(C)CC3)c(C(F)(F)F)c2)cc1C#Cc1cnc2cccnn12`
Response: 6.05

Prompt: Try this compound next: `CN[C@H]1CC[C@@H](c2ccc(Cl)c(Cl)c2)c2ccccc21`
Response: 6.72

Prompt: Try this compound next: CC(C(=O)O)c1ccc2c(c1)Cc1cccnc1O2 (stereo not given)
Response: 3.45

Prompt: Try this compound next: `CCC(=O)O[C@]1(C(=O)CCl)[C@@H](C)C[C@H]2[C@@H]3CCC4=CC(=O)C=C[C@]4(C)[C@@]3(F)[C@@H](O)C[C@@]21C`
Response: 2.14

====

System: HGGX6 (H3.3 G34R paediatric high-grade glioma line)
EXPERIMENTAL DETAILS: growth inhibition (% activity, log2 RLU normalised to DMSO / staurosporine); higher = more growth inhibition
CONDITIONS: 33 µM
Give measured growth inhibition for each item. Keep answers brief.
All answers are understood in %, so give the number only.

Prompt: What value of measured growth inhibition is listed for `CNCC[C@H](Oc1cccc2ccccc12)c1cccs1` ?
Response: 4.8

Prompt: Try this molecule next: `CCC(=O)NCC[C@@H]1CCc2ccc3c(c21)CCO3`
Response: -0.174

Prompt: Try this molecule next: `Nc1nnc(-c2cccc(Cl)c2Cl)c(N)n1`
Response: 0.473

Prompt: Try this molecule next: `CO[C@H]1/C=C/O[C@@]2(C)Oc3c(C)c(O)c4c(O)c(c5c(nc6cc(C)ccn65)c4c3C2=O)NC(=O)/C(C)=C\C=C\[C@H](C)[C@H](O)[C@@H](C)[C@@H](O)[C@@H](C)[C@H](OC(C)=O)[C@@H]1C`
Response: 1.5

Prompt: Try this molecule next: `COc1ccc(C(=O)CC(=O)c2ccc(C(C)(C)C)cc2)cc1`
Response: -0.501

Prompt: Try this molecule next: `CCCCOc1ccc(C(=O)CCN2CCCCC2)cc1`
Response: 7.94

Prompt: Try this molecule next: `CC[C@@H]([C@H](C)O)n1ncn(-c2ccc(N3CCN(c4ccc(OC[C@@H]5CO[C@@](Cn6cncn6)(c6ccc(F)cc6F)C5)cc4)CC3)cc2)c1=O`
Response: -1.15

Prompt: Try this molecule next: `Nc1nc(F)nc2c1ncn2[C@@H]1O[C@H](COP(=O)(O)O)[C@@H](O)[C@@H]1O`
Response: -0.81

Prompt: Try this molecule next: `CC(=O)OCC(=O)[C@@]1(O)[C@H](C)C[C@H]2[C@@H]3CCC4=CC(=O)C=C[C@]4(C)[C@@]3(F)[C@@H](O)C[C@@]21C`
Response: 5.01

Prompt: Try this molecule next: `CC(C)(C)c1nc(-c2cccc(NS(=O)(=O)c3c(F)cccc3F)c2F)c(-c2ccnc(N)n2)s1`
Response: 4.05

Prompt: Try this molecule next: `CCCc1nc(C(C)(C)O)c(C(=O)OCc2oc(=O)oc2C)n1Cc1ccc(-c2ccccc2-c2nnn[nH]2)cc1`
Response: -3.62

Prompt: Try this molecule next: `O=C(Nc1ccccc1)c1ccccc1O`
Response: 0.186

Prompt: Try this molecule next: `O=C(CCCCCCC(=O)Nc1ccccc1)NO`
Response: 33.7

Prompt: Try this molecule next: `O=C(CCCN1CCN(c2ccccn2)CC1)c1ccc(F)cc1`
Response: 3.31

Prompt: Try this molecule next: O=C(c1ccccc1)c1ccc2n1CCC2C(=O)O (configuration not stated)
Response: 1.54

Prompt: Try this molecule next: `CO[C@H]1/C=C/O[C@@]2(C)Oc3c(C)c(O)c4c(O)c(c(/C=N/N5CCN(C)CC5)c(O)c4c3C2=O)NC(=O)/C(C)=C\C=C\[C@H](C)[C@H](O)[C@@H](C)[C@@H](O)[C@@H](C)[C@H](OC(C)=O)[C@@H]1C`
Response: 3.31

Prompt: Try this molecule next: `O.O.O.O.O=C([O-])CC(O)(CC(=O)[O-])C(=O)[O-].[Li+].[Li+].[Li+]`
Response: -1.34

====

System: SUDIPGVI
EXPERIMENTAL DETAILS: growth inhibition (% activity, log2 RLU normalised to DMSO / staurosporine); higher = more growth inhibition
CONDITIONS: 33 µM
Give measured growth inhibition for each item. Keep answers brief.
All answers are understood in %, so give the number only.

Prompt: What value of measured growth inhibition is listed for `N=C(N=C(N)N)N1CCOCC1` ?
Response: 2.92

Prompt: Try this compound next: `CCN(CC)CCOC(=O)C(c1ccccc1)c1ccccc1`
Response: 3

Prompt: Try this compound next: `O=C(N/N=C/c1ccc([N+](=O)[O-])o1)c1ccc(O)cc1`
Response: 13.9

Prompt: Try this compound next: `CCOC(=O)[C@H](CCc1ccccc1)N[C@@H](C)C(=O)N1Cc2ccccc2C[C@H]1C(=O)O`
Response: 0.712

Prompt: Try this compound next: `O=C1Cc2cc(CCN3CCN(c4nsc5ccccc45)CC3)c(Cl)cc2N1`
Response: -3.95

Prompt: Try this compound next: `CCOC(=O)n1ccn(C)c1=S`
Response: 2.2

Prompt: Try this compound next: `CCCCOc1ccc(OCCCN2CCOCC2)cc1`
Response: 1.31

====

Tested on: HGGX6
EXPERIMENTAL DETAILS: growth inhibition (% activity, log2 RLU normalised to DMSO / staurosporine); higher = more growth inhibition
CONDITIONS: 33 µM
PROPERTY NAME: growth inhibition (%)
All answers are understood in %, so give the number only.

Prompt: What value of measured growth inhibition is listed for Nc1nc(=O)c2c([nH]1)NCC(CNc1ccc(C(=O)N[C@@H](CCC(=O)O)C(=O)O)cc1)N2C=O (some centres not stated) ?
Response: -0.876

Prompt: Try this compound next: `CN1CCN(c2c(F)cc3c(=O)c(C(=O)O)cn(CCF)c3c2F)CC1`
Response: -0.149

Prompt: Try this compound next: `CNC(=O)c1ccc(N2C(=S)N(c3ccc(C#N)c(C(F)(F)F)c3)C(=O)C2(C)C)cc1F`
Response: 1.33

Prompt: Try this compound next: CCn1cc(C(=O)O)c(=O)c2cc(F)c(N3CCNC(C)C3)c(F)c21 (configuration not stated)
Response: -5.88

Prompt: Try this compound next: `Nc1cc(C(Cl)=C(Cl)Cl)c(S(N)(=O)=O)cc1S(N)(=O)=O`
Response: 1.57

Prompt: Try this compound next: NS(=O)(=O)c1cc2c(cc1Cl)NC(C(Cl)Cl)NS2(=O)=O (configuration not stated)
Response: 5.05

Prompt: Try this compound next: `NS(=O)(=O)c1cc2c(cc1Cl)N=CNS2(=O)=O`
Response: -3.61

Prompt: Try this compound next: `CC1(C)O[C@@H]2C[C@H]3[C@@H]4C[C@H](F)C5=CC(=O)C=C[C@]5(C)[C@@]4(F)[C@@H](O)C[C@]3(C)[C@]2(C(=O)CO)O1`
Response: 3.53

Prompt: Try this compound next: `CN1CCN(c2cc3c(cc2F)c(=O)c(C(=O)O)cn3-c2ccc(F)cc2)CC1`
Response: -0.335

Prompt: Try this compound next: `CC[C@H](C)C[C@H](C)CCCCCCCCC(=O)N[C@H]1C[C@@H](O)[C@@H](NCCN)NC(=O)[C@@H]2[C@@H](O)CCN2C(=O)[C@H]([C@H](O)CCN)NC(=O)[C@H]([C@H](O)[C@@H](O)c2ccc(O)cc2)NC(=O)[C@@H]2C[C@@H](O)CN2C(=O)[C@H]([C@@H](C)O)NC1=O`
Response: -1.44

Prompt: Try this compound next: `O=C(N[C@H](CO)[C@H](O)c1ccc([N+](=O)[O-])cc1)C(Cl)Cl`
Response: -1.13

Prompt: Try this compound next: `CCc1c(Cl)c(O)c(Cl)c(O)c1C(=O)O[C@H]1[C@H](O)[C@H](OC)[C@H](OC/C2=C\C=C\C[C@H](O)/C(C)=C/[C@H](CC)[C@@H](O[C@@H]3OC(C)(C)[C@@H](OC(=O)C(C)C)[C@H](O)[C@@H]3O)/C(C)=C/C(C)=C/C[C@@H]([C@@H](C)O)OC2=O)O[C@@H]1C`
Response: 0.0636

Prompt: Try this compound next: `CN(c1nccc(=O)[nH]1)C1CCN(c2nc3ccccc3n2Cc2ccc(F)cc2)CC1`
Response: 3.86

Prompt: Try this compound next: `Cc1ccc(-c2cc(C(F)(F)F)nn2-c2ccc(S(N)(=O)=O)cc2)cc1`
Response: -1.39

Prompt: Try this compound next: `COc1cc(Cc2cnc(N)nc2N)cc(OC)c1OC`
Response: 2.4

Prompt: Try this compound next: `O=c1[nH]c(=O)n([C@H]2C[C@H](O)[C@@H](CO)O2)cc1I`
Response: -0.2

Prompt: Try this compound next: `Cc1cc(C#N)cc(C)c1Oc1nc(Nc2ccc(C#N)cc2)nc(N)c1Br`
Response: 6.05

Attribution: the supplement of paper PMC8253809
